Hello, the source for this data is the kinase profiling compilation of Christmann-Franck et al. (2016), in case you need it.

- test-system: SYK (human) (UniProt P43405)
- experiment-notes: Caliper, Mobility shift assay off-chip
- assay-setup: compound 1.0 µM
experimental-readout: inhibition (%)
Hi! Could you send only the number? It should be in %, unit omitted.

molecule	measurement-units	inhibition
Cn1cc(-c2cnc3ccc4ccc(CS(N)(=O)=O)cc4c(=O)c3c2)cn1	%	7.6
CN(c1ccc2ccc3ncc(-c4cnn(C)c4)cc3c(=O)c2c1)S(=O)(=O)NCc1ccccn1	%	15.8
Cn1cc(-c2cnc3ccc4ccc(CS(=O)(=O)CCc5ccccn5)cc4c(=O)c3c2)cn1	%	-1.7
O=C(CCc1ccc2ccc3ncc(C4CCNCC4)cc3c(=O)c2c1)NCc1ccccn1	%	-0.5

Could you now consider this next molecule?
Q: State inhibition (SYK (human) (UniProt P43405)) of Cn1cc(-c2cnc3ccc4ccc(CS(=O)(=O)NCC5CCCCN5)cc4c(=O)c3c2)cn1 (stereo not given) .
A: 0.3

----------
Collected inhibition values appear next to each entry.
- test-system: IRAK4 (human)
- experiment-notes: Caliper, Mobility shift assay off-chip
- assay-setup: compound 1.0 µM
Hi! Could you send only the number? It should be in %, unit omitted.

molecule	test-system	inhibition, %
Cn1cc(-c2cnc3ccc4ccc(CS(=O)(=O)CCc5ccccn5)cc4c(=O)c3c2)cn1	IRAK4 (human)	4.2
O=C(CCc1ccc2ccc3ncc(C4CCNCC4)cc3c(=O)c2c1)NCc1ccccn1	IRAK4 (human)	0.3
Cn1cc(-c2cnc3ccc4ccc(CS(N)(=O)=O)cc4c(=O)c3c2)cn1	IRAK4 (human)	-8.2
Cn1cc(-c2cnc3ccc4ccc(CS(=O)(=O)NCC5CCCCN5)cc4c(=O)c3c2)cn1 (stereo not given)	IRAK4 (human)	40.2

Could you now consider this next molecule?
Q: Recall and state the measured inhibition for CN(c1ccc2ccc3ncc(-c4cnn(C)c4)cc3c(=O)c2c1)S(=O)(=O)NCc1ccccn1 .
A: 16.1

----------
- test-system: AKT2 (human)
- experiment-notes: Caliper, Mobility shift assay off-chip
- assay-setup: compound 1.0 µM
experimental-readout: inhibition
Could you write the number and then its unit?

Worked examples follow.
compound	readout-value
Cn1cc(-c2cnc3ccc4ccc(CS(=O)(=O)NCC5CCCCN5)cc4c(=O)c3c2)cn1 (stereo not given)	1.9%
Cn1cc(-c2cnc3ccc4ccc(CS(=O)(=O)CCc5ccccn5)cc4c(=O)c3c2)cn1	-0.5%
O=C(CCc1ccc2ccc3ncc(C4CCNCC4)cc3c(=O)c2c1)NCc1ccccn1	3.1%

Q: Recall and state the measured inhibition for Cn1cc(-c2cnc3ccc4ccc(CS(N)(=O)=O)cc4c(=O)c3c2)cn1 .
A: 7.1%

Q: Recall and state the measured inhibition for CN(c1ccc2ccc3ncc(-c4cnn(C)c4)cc3c(=O)c2c1)S(=O)(=O)NCc1ccccn1 .
A: -15.8%

----------
- test-system: TSSK2 (human) (UniProt Q96PF2)
- Sequence (Q96PF2 whole entry, looked up): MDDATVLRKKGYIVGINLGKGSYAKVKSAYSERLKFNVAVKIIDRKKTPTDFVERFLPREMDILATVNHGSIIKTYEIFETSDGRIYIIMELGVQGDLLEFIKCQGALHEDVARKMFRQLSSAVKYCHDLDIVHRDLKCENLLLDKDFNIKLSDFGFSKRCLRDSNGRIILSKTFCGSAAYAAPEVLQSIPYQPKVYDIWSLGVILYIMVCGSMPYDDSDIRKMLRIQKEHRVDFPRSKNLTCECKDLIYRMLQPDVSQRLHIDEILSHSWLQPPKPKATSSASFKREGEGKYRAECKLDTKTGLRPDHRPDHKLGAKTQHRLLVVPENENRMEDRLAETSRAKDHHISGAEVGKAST
- experiment-notes: Caliper, Mobility shift assay off-chip
- assay-setup: compound 0.1 µM
experimental-readout: inhibition (%)
Hi! Could you send only the number? It should be in %, unit omitted.

Worked examples follow.
molecule	inhibition / %
CN(c1ccc2ccc3ncc(-c4cnn(C)c4)cc3c(=O)c2c1)S(=O)(=O)NCc1ccccn1	-3.3
Cn1cc(-c2cnc3ccc4ccc(CS(N)(=O)=O)cc4c(=O)c3c2)cn1	-37
O=c1c2cc(CS(=O)(=O)NCc3ccccn3)ccc2ccc2ncc(C3CCNCC3)cc12	-6.2
Cn1cc(-c2cnc3ccc4ccc(CS(=O)(=O)NC5CCCCC5)cc4c(=O)c3c2)cn1	0.7

Q: State inhibition (TSSK2 (human) (UniProt Q96PF2)) of Cn1cc(-c2cnc3ccc4ccc(CS(=O)(=O)NCC5CCCCN5)cc4c(=O)c3c2)cn1 (stereo unspecified) .
A: 0.7

Q: State inhibition (TSSK2 (human) (UniProt Q96PF2)) of O=C(CCc1ccc2ccc3ncc(C4CCNCC4)cc3c(=O)c2c1)NCc1ccccn1 .
A: -2.3

----------
- test-system: BRSK2 (human)
- experiment-notes: Caliper, Mobility shift assay off-chip
- assay-setup: compound 0.1 µM
Collected inhibition values appear next to each entry.
Hi! Could you send only the number? It should be in %, unit omitted.

Worked examples follow.
molecule	inhibition (%)
Cn1cc(-c2cnc3ccc4ccc(CS(=O)(=O)CCc5ccccn5)cc4c(=O)c3c2)cn1	1.5
CN(c1ccc2ccc3ncc(-c4cnn(C)c4)cc3c(=O)c2c1)S(=O)(=O)NCc1ccccn1	-0.7
Cn1cc(-c2cnc3ccc4ccc(CS(=O)(=O)NC5CCCCC5)cc4c(=O)c3c2)cn1	9.7
O=c1c2cc(CS(=O)(=O)NCc3ccccn3)ccc2ccc2ncc(C3CCNCC3)cc12	4.8
Cn1cc(-c2cnc3ccc4ccc(CS(=O)(=O)NCC5CCCCN5)cc4c(=O)c3c2)cn1 (stereo unspecified)	-1.3

Could you now consider this next molecule?
Q: Recall and state the measured inhibition for O=C(CCc1ccc2ccc3ncc(C4CCNCC4)cc3c(=O)c2c1)NCc1ccccn1 .
A: 3.4

----------
Collected inhibition values appear next to each entry.
- test-system: IKBKB (human) (UniProt O14920)
- Sequence (O14920 whole entry, looked up): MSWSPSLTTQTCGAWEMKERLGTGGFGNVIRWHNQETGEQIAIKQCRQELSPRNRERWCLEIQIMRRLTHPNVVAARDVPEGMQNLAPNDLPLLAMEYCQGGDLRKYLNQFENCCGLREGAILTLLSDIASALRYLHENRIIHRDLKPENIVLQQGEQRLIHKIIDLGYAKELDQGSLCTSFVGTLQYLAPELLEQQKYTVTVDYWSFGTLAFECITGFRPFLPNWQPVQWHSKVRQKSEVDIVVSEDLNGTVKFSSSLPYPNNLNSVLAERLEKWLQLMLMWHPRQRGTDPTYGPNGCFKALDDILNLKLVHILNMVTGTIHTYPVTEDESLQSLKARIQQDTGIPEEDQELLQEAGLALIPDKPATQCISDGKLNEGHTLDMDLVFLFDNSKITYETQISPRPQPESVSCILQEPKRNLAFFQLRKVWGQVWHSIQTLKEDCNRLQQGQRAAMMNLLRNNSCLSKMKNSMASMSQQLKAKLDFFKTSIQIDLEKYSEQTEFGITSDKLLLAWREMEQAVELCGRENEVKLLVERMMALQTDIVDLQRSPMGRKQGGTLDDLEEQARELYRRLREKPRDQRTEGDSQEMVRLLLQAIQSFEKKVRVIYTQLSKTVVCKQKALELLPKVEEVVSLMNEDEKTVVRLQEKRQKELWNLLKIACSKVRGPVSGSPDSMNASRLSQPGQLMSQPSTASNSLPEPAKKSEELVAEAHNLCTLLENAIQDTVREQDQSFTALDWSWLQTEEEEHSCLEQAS
- experiment-notes: Caliper, Mobility shift assay off-chip
- assay-setup: compound 0.1 µM
Hi! Could you send only the number? It should be in %, unit omitted.

compound	experimental-readout	readout-value
Cn1cc(-c2cnc3ccc4ccc(CS(N)(=O)=O)cc4c(=O)c3c2)cn1	inhibition	-12
Cn1cc(-c2cnc3ccc4ccc(CS(=O)(=O)NCC5CCCCN5)cc4c(=O)c3c2)cn1 (configuration not stated)	inhibition	1.9
Cn1cc(-c2cnc3ccc4ccc(CS(=O)(=O)CCc5ccccn5)cc4c(=O)c3c2)cn1	inhibition	1.4
CN(c1ccc2ccc3ncc(-c4cnn(C)c4)cc3c(=O)c2c1)S(=O)(=O)NCc1ccccn1	inhibition	10
Cn1cc(-c2cnc3ccc4ccc(CS(=O)(=O)NC5CCCCC5)cc4c(=O)c3c2)cn1	inhibition	-0.4

Q: State inhibition (IKBKB (human) (UniProt O14920)) of O=C(CCc1ccc2ccc3ncc(C4CCNCC4)cc3c(=O)c2c1)NCc1ccccn1 .
A: 1.2

Q: State inhibition (IKBKB (human) (UniProt O14920)) of O=c1c2cc(CS(=O)(=O)NCc3ccccn3)ccc2ccc2ncc(C3CCNCC3)cc12 .
A: 0.6

----------
Collected inhibition values appear next to each entry.
- test-system: MARK3 (human)
- experiment-notes: Caliper, Mobility shift assay off-chip
- assay-setup: compound 1.0 µM
Hi! Could you send only the number? It should be in %, unit omitted.

Q: Recall and state the measured inhibition for O=C(CCc1ccc2ccc3ncc(C4CCNCC4)cc3c(=O)c2c1)NCc1ccccn1 .
A: -4.4

Q: Recall and state the measured inhibition for CN(c1ccc2ccc3ncc(-c4cnn(C)c4)cc3c(=O)c2c1)S(=O)(=O)NCc1ccccn1 .
A: 5.3

Q: Recall and state the measured inhibition for Cn1cc(-c2cnc3ccc4ccc(CS(N)(=O)=O)cc4c(=O)c3c2)cn1 .
A: -3.3

Q: Recall and state the measured inhibition for Cn1cc(-c2cnc3ccc4ccc(CS(=O)(=O)NCC5CCCCN5)cc4c(=O)c3c2)cn1 (stereo not given) .
A: -4.3

Q: Recall and state the measured inhibition for Cn1cc(-c2cnc3ccc4ccc(CS(=O)(=O)CCc5ccccn5)cc4c(=O)c3c2)cn1 .
A: -4.1

----------
- test-system: DYRK1A (human)
- experiment-notes: Caliper, Mobility shift assay off-chip
- assay-setup: compound 0.1 µM
Collected inhibition values appear next to each entry.
Hi! Could you send only the number? It should be in %, unit omitted.

Worked examples follow.
compound	test-system	inhibition [%]
Cn1cc(-c2cnc3ccc4ccc(CS(=O)(=O)NCC5CCCCN5)cc4c(=O)c3c2)cn1 (configuration not stated)	DYRK1A (human)	2.3
O=C(CCc1ccc2ccc3ncc(C4CCNCC4)cc3c(=O)c2c1)NCc1ccccn1	DYRK1A (human)	5.6
Cn1cc(-c2cnc3ccc4ccc(CS(=O)(=O)CCc5ccccn5)cc4c(=O)c3c2)cn1	DYRK1A (human)	-4.6
O=c1c2cc(CS(=O)(=O)NCc3ccccn3)ccc2ccc2ncc(C3CCNCC3)cc12	DYRK1A (human)	-4.3
CN(c1ccc2ccc3ncc(-c4cnn(C)c4)cc3c(=O)c2c1)S(=O)(=O)NCc1ccccn1	DYRK1A (human)	7.9
Cn1cc(-c2cnc3ccc4ccc(CS(N)(=O)=O)cc4c(=O)c3c2)cn1	DYRK1A (human)	6.2

Could you now consider this next compound?
Q: Recall and state the measured inhibition for Cn1cc(-c2cnc3ccc4ccc(CS(=O)(=O)NC5CCCCC5)cc4c(=O)c3c2)cn1 .
A: 6.4

----------
- test-system: RPS6KA5 KD1 KD2 (human) (UniProt O75582)
- Sequence (O75582 whole entry, looked up): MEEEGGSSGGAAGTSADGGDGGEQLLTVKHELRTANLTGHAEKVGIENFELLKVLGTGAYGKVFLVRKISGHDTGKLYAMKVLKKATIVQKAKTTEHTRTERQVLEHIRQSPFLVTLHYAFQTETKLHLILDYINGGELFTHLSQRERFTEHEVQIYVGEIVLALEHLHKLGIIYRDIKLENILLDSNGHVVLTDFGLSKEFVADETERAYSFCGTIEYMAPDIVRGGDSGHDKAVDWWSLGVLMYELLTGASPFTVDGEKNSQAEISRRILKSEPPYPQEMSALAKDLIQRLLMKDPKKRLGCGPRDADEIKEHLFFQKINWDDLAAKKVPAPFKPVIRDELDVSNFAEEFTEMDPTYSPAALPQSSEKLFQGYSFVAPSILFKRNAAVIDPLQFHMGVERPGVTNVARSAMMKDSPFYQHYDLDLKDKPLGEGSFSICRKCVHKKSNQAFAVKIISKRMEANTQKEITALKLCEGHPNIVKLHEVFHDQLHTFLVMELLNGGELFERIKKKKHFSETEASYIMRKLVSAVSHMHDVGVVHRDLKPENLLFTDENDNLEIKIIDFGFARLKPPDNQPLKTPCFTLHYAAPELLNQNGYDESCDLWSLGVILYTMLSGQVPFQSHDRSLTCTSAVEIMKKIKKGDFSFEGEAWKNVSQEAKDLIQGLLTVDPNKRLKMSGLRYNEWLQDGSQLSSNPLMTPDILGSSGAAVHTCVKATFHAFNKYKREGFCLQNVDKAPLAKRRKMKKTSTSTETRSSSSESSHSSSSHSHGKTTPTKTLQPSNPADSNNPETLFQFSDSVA
- experiment-notes: Caliper, Mobility shift assay off-chip
- assay-setup: compound 0.1 µM
experimental-readout: inhibition (%)
Hi! Could you send only the number? It should be in %, unit omitted.

Worked examples follow.
molecule	measurement-units	readout-value
Cn1cc(-c2cnc3ccc4ccc(CS(=O)(=O)NCC5CCCCN5)cc4c(=O)c3c2)cn1 (configuration not stated)	%	0.7
O=C(CCc1ccc2ccc3ncc(C4CCNCC4)cc3c(=O)c2c1)NCc1ccccn1	%	-5.3
Cn1cc(-c2cnc3ccc4ccc(CS(=O)(=O)CCc5ccccn5)cc4c(=O)c3c2)cn1	%	-3.5
Cn1cc(-c2cnc3ccc4ccc(CS(=O)(=O)NC5CCCCC5)cc4c(=O)c3c2)cn1	%	-4.2
Cn1cc(-c2cnc3ccc4ccc(CS(N)(=O)=O)cc4c(=O)c3c2)cn1	%	8
O=c1c2cc(CS(=O)(=O)NCc3ccccn3)ccc2ccc2ncc(C3CCNCC3)cc12	%	-2.9

Q: Recall and state the measured inhibition for CN(c1ccc2ccc3ncc(-c4cnn(C)c4)cc3c(=O)c2c1)S(=O)(=O)NCc1ccccn1 .
A: -3.5
